Hey, just so you know, these numbers are from paper PMC11362829.

EXPERIMENTAL TARGET: recombinant E. coli DXR enzyme (EcDXR) (Escherichia coli)
PROTOCOL: DXR enzyme inhibition assay
// boundary case: IC50 equal to 20 µM maps to label 0; strictly smaller maps to label 1

The examples below pair each entry with its known result.
In: Quick check: does O=C(NC(c1ccccc1)P(=O)(O)O)c1coc2ccccc2c1=O (stereo not drawn) [Compound 23a] have IC50 under 20 µM?
Out: label 1

In: Quick check: does O=C(NC(c1cccc2ccccc12)P(=O)(O)O)c1ccccc1O (stereo not drawn) [Compound 20d] have IC50 under 20 µM?
Out: label 0

In: Quick check: does O=C(NC(c1cccc2ccccc12)P(=O)(O)O)c1ccc2ccccc2c1O (stereo not drawn) [Compound 22d] have IC50 under 20 µM?
Out: label 1

In: Quick check: does O=C(NC(c1ccccc1)P(=O)(O)O)c1ccc2ccccc2c1O (stereo not drawn) [Compound 22a] have IC50 under 20 µM?
Out: label 1

More entries:
In: Quick check: does O=C(NCP(=O)(O)O)c1ccc2ccccc2c1O [Compound 22b] have IC50 under 20 µM?
Out: label 1

In: Quick check: does O=C(NC(c1ccccc1)P(=O)(O)O)c1ccccc1O (stereo not drawn) [Compound 20a] have IC50 under 20 µM?
Out: label 0

----------
The following compounds are shown together with reported inhibition at 100 µM values.
EXPERIMENTAL TARGET: recombinant E. coli DXR enzyme (EcDXR) (Escherichia coli)
PROTOCOL: DXR enzyme inhibition assay
Assay type: biochemical
CONDITION: read-out: % Inhibition at 100 μM, in vitro EcDXR inhibition, 100 μM
Answer with a number only, understood to be in %.

Given item O=C(O)c1coc2ccccc2c1=O [Compound F10, Chromone-3-carboxylic acid] , the value recorded as its inhibition at 100 µM is 100

Given item O=C(O)c1ccc2ccccc2c1O [Compound F7, 1-Hydroxy-2-naphthoic acid] , the value recorded as its inhibition at 100 µM is 100

Given item O=C(O)c1ccccc1O [Compound F12, Salicylic acid] , the value recorded as its inhibition at 100 µM is 87.4

Given item O=C(O)c1cccc(O)c1O [Compound F2, 2,3-Dihydroxy benzoic acid] , the value recorded as its inhibition at 100 µM is 93.3

Given item O=CN(O)CCCP(=O)(O)O [FSM, Fosmidomycin, reference compound] , the value recorded as its inhibition at 100 µM is 100

// next entry
Given item O=Cc1cccc(O)c1O [Compound F9, 2,3-dihydroxy benzaldehyde] , the value recorded as its inhibition at 100 µM is 86.5

----------
EXPERIMENTAL TARGET: recombinant E. coli DXR enzyme (EcDXR) (Escherichia coli, UniProt P45568)
Sequence (P45568 1-398): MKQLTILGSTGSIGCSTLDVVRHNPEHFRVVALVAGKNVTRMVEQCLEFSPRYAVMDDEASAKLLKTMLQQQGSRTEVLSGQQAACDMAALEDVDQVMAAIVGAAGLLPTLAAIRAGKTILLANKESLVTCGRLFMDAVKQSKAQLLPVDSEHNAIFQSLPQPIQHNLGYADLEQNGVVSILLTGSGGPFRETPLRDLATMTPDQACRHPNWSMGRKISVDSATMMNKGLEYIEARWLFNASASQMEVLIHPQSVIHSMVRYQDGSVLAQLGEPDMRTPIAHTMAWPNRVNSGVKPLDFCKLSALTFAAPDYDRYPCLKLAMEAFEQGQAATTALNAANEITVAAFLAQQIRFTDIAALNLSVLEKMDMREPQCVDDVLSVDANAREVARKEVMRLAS
PROTOCOL: DXR enzyme inhibition assay
Type: biochemical
CONDITION: read-out: % Inhibition at 50 μM, EcDXR, 50 μM
// 0.0 strictly below 80% in inhibition at 50 µM; 1.0 otherwise

In: Tell me whether inhibition at 50 µM is at least 80% here: O=C(NCc1ccccc1)c1ccc2ccccc2c1O [Compound 25a, N-Benzyl-1-hydroxy-2-naphthamide]
Out: 0.0

In: Tell me whether inhibition at 50 µM is at least 80% here: O=C(NCP(=O)(O)O)c1cccc(O)c1O [Compound 21b]
Out: 0.0

In: Tell me whether inhibition at 50 µM is at least 80% here: O=C(NC(c1ccccc1)P(=O)(O)O)c1ccccc1O (centres unmarked) [Compound 20a]
Out: 1.0

In: Tell me whether inhibition at 50 µM is at least 80% here: O=C(NC(c1ccccc1)P(=O)(O)O)c1cccc(O)c1O (centres unmarked) [Compound 21a]
Out: 0.0
